Target: T1, NC2 peptide … / HLA-A*02:01 complex (human)
T1 construct: whole, on cells; On pulsed T2 cells; also presented on JMN cells (HLA-A*02)
Assay: FACS, scFv phage on T2 cells loaded with single peptide

| binder | binding result |
| --- | --- |
| Clone 14 scFv phage clone (Clone 14 scFv) (scFv) scFv: QSVLTQPPSVSAAPGQRVTISCSGSTSNIGSNYVSWYQQFPGTAPKLLIYDSDKRISGIPDRFSGSKSGTSATLGITGLQTGDEADYYCGTWDSSLTVGVFGGGTKVTVLGSRGGGGSGGGGSGGGGSLEMAQLQLQESGPGLVKPSGTLSLTCAVSGGSISSSNWWSWVRQPPGKGLEWIGEIYHSGSTNYNPSLKSRVTISVDKSKNQFSLKLSSVTAADTAVYYCARYFGQKYDYWGQGTLVTVSS | no binding |
| Clone 1 scFv phage clone (Clone 01 scFv) (scFv, also called phage clone 1) scFv: DIQLTQSPSSLSASVGDRVTITCRASQGIRNDLGWYQQKPGKAPKLMIYAASSLQSGVPSRFSGSGSGTDFTLTISSLQPEDFATYYCLQDYDYPLTFGGGTKLEIKRSRGGGGSGGGGSGGGGSLEMAEVQLVQSGAEVKKPGESLKISCEASGYSFSSNWIAWVRQRPGKGLEWMGIIYPGDSDTRYSPSFQGQVTMSADMSISTAYLQWSSLKASDTAMYYCARFAGPGMWSYGFDYWGQGTLVTVSS | no binding |
| Clone 11 scFv phage clone (Clone 11 scFv) (scFv) scFv: NFMLTQPHSVSESPGKTVTISCTRSSGSIASNYVQWYQQRPGSAPTTVIYEDNQRPSGVPDRFSGSIDSSSNSASLTISGLKTEDEADYYCQSYDSSNVVFGGGTKLTVLGSRGGGGSGGGGSGGGGSLEMAQVQLVQSGAEVRKPGASVKVSCKASGYSFTSNGITWVRQAPGQGLEWMGWISGYNANTRYAQEFQARVTMTTDTSASTAYMELRSLRSDDTAVYYCARHAYWGGDSDYWGQGTLVTVSS | no binding |
